I'd be grateful if you could share measured EC50 for these entries.
molecular target: human C-terminal DNMT3A (623-908a.a.) (Homo sapiens, UniProt Q9Y6K1); construct: The human C-terminal DNMT3A (623-908a.a.); made in house; test: hDNMT3A assay (restriction-based fluorescence assay); type: biochemical; details: concentration at which 50% of efficacy of inhibition is observed; read-out: EC50 (μM), hDNMT 3A inhibition
Sequence (Q9Y6K1 627-912 limits assumed): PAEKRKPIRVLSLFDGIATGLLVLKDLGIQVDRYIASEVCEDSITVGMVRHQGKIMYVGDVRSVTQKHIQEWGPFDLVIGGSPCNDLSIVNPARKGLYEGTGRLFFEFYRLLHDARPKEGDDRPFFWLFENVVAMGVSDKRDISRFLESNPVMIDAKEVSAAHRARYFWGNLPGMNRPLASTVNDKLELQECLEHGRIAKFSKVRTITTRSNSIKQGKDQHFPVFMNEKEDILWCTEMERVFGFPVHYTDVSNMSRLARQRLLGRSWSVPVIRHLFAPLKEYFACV

CCN(CC)CCCNC(=S)N1CCc2cc(OC)c3c4c2[C@@H]1Cc1ccc(cc1)Oc1cc(ccc1OC)C[C@H]1c2cc(c(cc2CCN1C)O3)O4 [Product 12] | 2.67 to 3.8 µM

Each molecule below has a recorded value; state its EC50.
1. COc1ccc2cc1Oc1ccc(cc1)CC1c3c(cc(OC)c4c3Oc3cc5c(cc3O4)CCN(C)[C@H]5C2)CCN1C(=O)CCCl (stereo partly shown) [Product 32]
2. CCN(CC)CCCNC(=S)N1CCc2cc3c4cc2[C@@H]1Cc1ccc(OC)c(c1)Oc1ccc(cc1)C[C@H]1c2c(cc(OC)c(c2O4)O3)CCN1C(=S)NCCCN(CC)CC [Product 41]
3. COc1ccc2cc1Oc1ccc(cc1)CC1c3c(cc(OC)c4c3Oc3cc5c(cc3O4)CCN(C)[C@H]5C2)CCN1C(=O)C1CCC(CN2C(=O)C=CC2=O)CC1 (stereo partly shown) [Product 30]

5.34 to 6.87 µM
0.557 to 0.91 µM
4.19 to 9.36 µM
